target: protein 18-19 (D65V); construct: 80-residue artificial protein as N-terminal MBP fusion; assay: equilibrium ultrafiltration with γ-[…]-ATP
RESULT TYPE: Kd (nM)
Answers are plain numbers, in nM.

Task: // lookup Kd | system=protein 18-19 (D65V) | key= `Nc1ncnc2c1ncn2[C@@H]1O[C@H](COP(=O)(O)OP(=O)(O)OP(=O)(O)O)[C@@H](O)[C@H]1O`
Result: 640

====

molecular target: protein 18-19; construct: Kd measured on the N-terminal MBP fusion; crystal structure model residues 9-71; test: X-ray crystal structure ([…] Å) and equilibrium ultrafiltration with γ-[…]-ATP
RESULT TYPE: Kd (nM)
Give bare numbers, in nM.

Task: // lookup Kd | system=protein 18-19 | key= `Nc1ncnc2c1ncn2[C@@H]1O[C@H](COP(=O)(O)OP(=O)(O)OP(=O)(O)O)[C@@H](O)[C@H]1O`
Result: 1100

Cited source for all entries: paper PMC1867856
